These data points were gathered from patent EP0900210B1.

System Tested: HIV-1-protease (Human immunodeficiency virus type 1 group M subtype B, UniProt P04585)
Construct: made in house
Assay Name: Inhibition of HIV-1-protease with icosapeptide substrate […] (HPLC)
Type: biochemical
Condition Notes: icosapeptide […] 122 µM, 20 mM MES pH 6.0, one hour at 37°C; read-out: IC50
Protocol: The inhibitory action of the compounds of formula I on the proteolytic activity of HIV-1-protease can be shown, for example, according to known procedures (see A. D. Richards et al., J. Biol. Chem. 265(14), 7733-7736 (1990)). In that method the inhibition of the action of HIV-1-protease (preparation: see S. Billich et al., J. Biol. Chem. 263(34), 17905-17908 (1990)) is measured in the presence of the icosapeptide […] […]
Listing of recorded IC50 by entry.
Could you give me the number in nM? Just the number is fine.

As a guide, the following entries are already answered.
{"columns": ["Molecule", "Assay Readout", "Observed Value"],
 "data": [
  ["CC[C@H](C)[C@H](NC(=O)OC)C(=O)N[C@@H](Cc1ccccc1)[C@@H](O)CN(Cc1ccc(-c2cnccn2)cc1)NC(=O)[C@@H](NC(=O)OC)[C@@H](C)CC [Example 43]", "IC50", 37],
  ["CCOC(=O)N[C@H](C(=O)NN(Cc1ccc(-c2cncs2)cc1)C[C@H](O)[C@H](Cc1ccccc1)NC(=O)[C@@H](NC(=O)OC)C(C)(C)C)C(C)C [Example 6]", "IC50", 22],
  ["CC[C@H](C)[C@H](NC(=O)OC)C(=O)NN(Cc1ccc(-c2cncs2)cc1)C[C@H](O)[C@H](Cc1ccccc1)NC(=O)[C@@H](NC(=O)OC)C(C)C [Example 9]", "IC50", 19]
]}

IC50 of COC(=O)N[C@H](C(=O)N[C@@H](Cc1ccccc1)[C@@H](O)CN(Cc1ccc(-c2nnn(C(C)(C)C)n2)cc1)NC(=O)[C@@H](NC(=O)OC)C(C)(C)C)C(C)C [Example 35] on HIV-1-protease (Human immunodeficiency virus type 1 group M subtype B, UniProt P04585)? 58

So what IC50 did COC(=O)N[C@H](C(=O)N[C@@H](Cc1ccccc1)[C@@H](O)CN(Cc1ccc(-c2cccnc2)cc1)NC(=O)[C@@H](NC(=O)OC)C(C)C)C(C)C [Example 39] get with HIV-1-protease (Human immunodeficiency virus type 1 group M subtype B, UniProt P04585)? 12

Enter reported IC50 observed with HIV-1-protease (Human immunodeficiency virus type 1 group M subtype B, UniProt P04585) for COC(=O)N[C@H](C(=O)N[C@@H](Cc1ccccc1)[C@@H](O)CN(Cc1ccc(-c2cnccn2)cc1)NC(=O)[C@@H](NC(=O)OC)C(C)(C)C)C(C)C [Example 42] 15

Kindly state the measured IC50 obtained for CCOC(=O)N[C@H](C(=O)NN(Cc1ccc(-c2nccs2)cc1)C[C@H](O)[C@H](Cc1ccccc1)NC(=O)[C@@H](NC(=O)OC)[C@@H](C)CC)C(C)C [Example 22] with HIV-1-protease (Human immunodeficiency virus type 1 group M subtype B, UniProt P04585). 40

###

System Tested: HIV-1-protease (Human immunodeficiency virus type 1 group M subtype B)
Construct: made in house
Assay Name: Inhibition of HIV-1-protease with icosapeptide substrate […] (HPLC)
Format: biochemical
The entries below come with measured IC50 values attached.

# annotated cases, reported IC50 shown
{"columns": ["Structure", "IC50"],
 "data": [
  ["CC[C@H](C)[C@H](NC(=O)OC)C(=O)N[C@@H](Cc1ccccc1)[C@@H](O)CN(Cc1ccc(-c2ccccn2)cc1)NC(=O)[C@@H](NC(=O)OC)C(C)C", "28 nM"],
  ["COC(=O)N[C@H](C(=O)N[C@@H](Cc1ccccc1)[C@@H](O)CN(Cc1ccc(-c2ccccn2)cc1)NC(=O)[C@@H](NC(=O)OC)C(C)(C)C)C(C)C", "20 nM"]
]}

We next turn to a different compound, shown below.
I would be grateful if you could share the reported IC50 for CC[C@H](C)[C@H](NC(=O)OC)C(=O)NN(Cc1ccc(-c2ccccn2)cc1)C[C@H](O)[C@H](Cc1ccccc1)NC(=O)[C@@H](NC(=O)OC)C(C)C . 34 nM

###

System Tested: HIV-1-protease (Human immunodeficiency virus type 1 group M subtype B, UniProt P04585)
Construct: made in house
Assay Name: Inhibition of HIV-1-protease with icosapeptide substrate […] (HPLC)
Format: biochemical
Condition Notes: icosapeptide […] 122 µM, 20 mM MES pH 6.0, one hour at 37°C; read-out: IC50
Labelling: IC50 reported below 0.03 µM becomes yes; at or above becomes no.

Observe how each entry below is paired with its result.
{"columns": ["Molecule", "Group Label"],
 "data": [
  ["COC(=O)N[C@@H](CSC)C(=O)NN(Cc1ccc(-c2cncs2)cc1)C[C@H](O)[C@H](Cc1ccccc1)NC(=O)[C@@H](NC(=O)OC)C(C)(C)C [Example 5]", "no"],
  ["CC[C@H](C)[C@H](NC(=O)OC)C(=O)N[C@@H](Cc1ccccc1)[C@@H](O)CN(Cc1ccc(-c2nnn(C(C)(C)c3ccccc3)n2)cc1)NC(=O)[C@@H](NC(=O)OC)C(C)(C)C [Example 31]", "no"],
  ["COC(=O)N[C@H](C(=O)NN(Cc1ccc(-c2cncs2)cc1)C[C@H](O)[C@H](Cc1ccccc1)NC(=O)[C@@H](NC(=O)OC)C(C)(C)C)C(C)C [Example 2]", "yes"],
  ["CC[C@H](C)[C@H](NC(=O)OC)C(=O)N[C@@H](Cc1ccccc1)[C@@H](O)CN(Cc1ccc(-c2cncs2)cc1)NC(=O)[C@@H](NC(=O)OC)C(C)C [Example 12]", "yes"]
]}

Next, consider the following molecule.
Strictly below 0.03 µM: is that where IC50 of COC(=O)N[C@H](C(=O)N[C@@H](Cc1ccccc1)[C@@H](O)CN(Cc1ccc(-c2cnccn2)cc1)NC(=O)[C@@H](NC(=O)OC)C(C)C)C(C)C [Example 40] sits? yes

###

Reported pIC50 values follow for various compounds
System Tested: HIV-1-protease (Human immunodeficiency virus type 1 group M subtype B)
Construct: made in house
Assay Name: Inhibition of HIV-1-protease with icosapeptide substrate […] (HPLC)
Assay type: biochemical
Condition Notes: icosapeptide […] 122 µM, 20 mM MES pH 6.0, one hour at 37°C; read-out: IC50
The value called pIC50 is obtained by taking minus log10 of the concentration in mol/L.

Take a look at these entries with their results.
{"columns": ["Compound", "System Tested", "pIC50"],
 "data": [
  ["CC[C@H](C)[C@H](NC(=O)OC)C(=O)NN(Cc1ccc(-c2nnn[nH]2)cc1)C[C@H](O)[C@H](Cc1ccccc1)NC(=O)[C@@H](NC(=O)OC)C(C)(C)C [Example 29]", "HIV-1-protease (Human immunodeficiency virus type 1 group M subtype B)", 7.85],
  ["COC(=O)N[C@H](C(=O)N[C@@H](Cc1ccccc1)[C@@H](O)CN(Cc1ccc(-c2cncs2)cc1)NC(=O)[C@@H](NC(=O)OC)C(C)C)C(C)C [Example 1]", "HIV-1-protease (Human immunodeficiency virus type 1 group M subtype B)", 7.49]
]}

Sample COC(=O)N[C@H](C(=O)NN(Cc1ccc(-c2ccccn2)cc1)C[C@H](O)[C@H](Cc1ccccc1)NC(=O)[C@@H](NC(=O)OC)C(C)(C)C)C(C)C [Example 48] — what was its pIC50? 7.51

Reported pIC50, compound COC(=O)N[C@H](C(=O)N[C@@H](Cc1ccccc1)[C@@H](O)CN(Cc1ccc(-c2nnn(C)n2)cc1)NC(=O)[C@@H](NC(=O)OC)C(C)(C)C)C(C)(C)C [Example 27] : ____ 7.57

Reported pIC50 for CCOC(=O)N[C@H](C(=O)NN(Cc1ccc(-c2cncs2)cc1)C[C@H](O)[C@H](Cc1ccccc1)NC(=O)[C@@H](NC(=O)OC)C(C)C)C(C)C [Example 8] : what is it? 8.00

###

IC50 by entry:
System Tested: HIV-1-protease (Human immunodeficiency virus type 1 group M subtype B)
Construct: made in house
Assay Name: Inhibition of HIV-1-protease with icosapeptide substrate […] (HPLC)
Format: biochemical
Condition Notes: icosapeptide […] 122 µM, 20 mM MES pH 6.0, one hour at 37°C; read-out: IC50

{"columns": ["Molecule", "IC50"],
 "data": [
  ["COC(=O)N[C@H](C(=O)N[C@@H](Cc1ccccc1)[C@@H](O)CN(Cc1ccc(-c2cccs2)cc1)NC(=O)[C@@H](NC(=O)OC)C(C)C)C(C)C", "12 nM"],
  ["CC[C@H](C)[C@H](NC(=O)OC)C(=O)NN(Cc1ccc(-c2cncs2)cc1)C[C@H](O)[C@H](Cc1ccccc1)NC(=O)[C@@H](NC(=O)OC)C(C)(C)C", "38 nM"]
]}

Please turn your attention to the following entry.
Kindly state the measured IC50 obtained for COC(=O)N[C@H](C(=O)N[C@@H](Cc1ccccc1)[C@@H](O)CN(Cc1ccc(-c2nnnn2C)cc1)NC(=O)[C@@H](NC(=O)OC)C(C)(C)C)C(C)(C)C [27 (1-methyl-1H-tetrazolyl isomer)] with HIV-1-protease (Human immunodeficiency virus type 1 group M subtype B). 51 nM
